experiment: Cell Viability - LYMP1-003 - Assay at 40 hr (AID 964); details: LYMP1-003 lymphoblastoid viability; series mostly up to 92.2 µM; note: nearly all actives have a fitted effect of over 60% in size
Records with an inconclusive call do not appear. Active and inactive are the calls of the source. Calls come from the whole dose curve; as a rule, active = well fitted cell-killing curve with a large enough effect; inconclusive = small, poorly fitted or top-dose-only effect; inactive = flat fitted curve, though single readings scatter.
OBSERVED_PROPERTY: outcome

{"columns": ["COMPOUND", "OBSERVED_PROPERTY", "EXPERIMENTAL_RESULT"],
 "data": [
  ["Nc1ccn([C@H]2CC[C@@H](CO)O2)c(=O)n1", "outcome", "inactive"],
  ["Clc1ccc(C(c2ccccc2Cl)C(Cl)Cl)cc1 (centres undefined)", "outcome", "inactive"],
  ["Nc1c2c(nc3ccccc13)CCCC2", "outcome", "inactive"],
  ["NS(=O)(=O)c1cc2c(cc1Cl)NCNS2(=O)=O", "outcome", "inactive"]
]}

# input compound: "CC(C)C(=O)Nc1ccc([N+](=O)[O-])c(C(F)(F)F)c1" ; wanted: its outcome
inactive

----------
test: Primary redox qHTS assay for identification of artifact compounds. (AID 1845223); settings: Amplex Red/HRP redox cycling with DTT, fluorescence; series mostly up to 53.8 µM
Results filed as inconclusive are left out. Calls of active or inactive are those of the source. Calls follow the shape of the dose curve; as a rule, active = well fitted activation curve with a large enough effect; inconclusive = small, poorly fitted or top-dose-only effect; inactive = flat fitted curve, though single readings scatter.

{"columns": ["CHEMICAL_STRUCTURE", "outcome"],
 "data": [
  ["CS(=O)(=O)CCNCc1ccc(-c2ccc3ncnc(Nc4ccc(OCc5cccc(F)c5)c(Cl)c4)c3c2)o1", "inactive"],
  ["CNCCCC12CCC(c3ccccc31)c1ccccc12", "inactive"],
  ["Cc1cc(C(C)(C)C)c(O)c(C)c1CC1=NCCN1", "inactive"],
  ["Cc1ccc(-c2cc(C(F)(F)F)nn2-c2ccc(S(N)(=O)=O)cc2)cc1", "inactive"]
]}

----------
biological target: Peroxisome proliferator-activated receptor gamma (Homo sapiens) (UniProt P37231); assay: qHTS assay for small molecule antagonists of peroxisome proliferator-activated receptor gamma signaling (AID 588537); settings: HEK293 PPARg-UAS-bla, beta-lactamase ratio, antagonist mode; series mostly up to 76.8 µM
Sequence (P37231 whole entry, looked up): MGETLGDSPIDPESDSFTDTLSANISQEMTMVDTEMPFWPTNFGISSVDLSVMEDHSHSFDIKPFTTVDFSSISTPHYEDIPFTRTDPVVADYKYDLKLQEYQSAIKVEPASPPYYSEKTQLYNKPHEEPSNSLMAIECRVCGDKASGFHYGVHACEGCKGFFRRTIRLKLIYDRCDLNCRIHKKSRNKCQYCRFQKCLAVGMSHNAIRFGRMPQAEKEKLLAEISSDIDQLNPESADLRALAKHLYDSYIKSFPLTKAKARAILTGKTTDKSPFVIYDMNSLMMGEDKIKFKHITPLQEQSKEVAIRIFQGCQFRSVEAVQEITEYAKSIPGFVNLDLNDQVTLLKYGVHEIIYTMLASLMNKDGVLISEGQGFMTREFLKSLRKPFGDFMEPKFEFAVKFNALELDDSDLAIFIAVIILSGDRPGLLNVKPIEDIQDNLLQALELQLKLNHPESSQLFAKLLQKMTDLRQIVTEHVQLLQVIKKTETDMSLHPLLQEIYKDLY
Records with an inconclusive call do not appear. Active and inactive are the calls of the source. Calls come from the whole dose curve; as a rule, active = well fitted inhibition curve with a large enough effect in the signal ratio, with a control signal flat (not every such curve was filed as active); inconclusive = small, poorly fitted or top-dose-only effect, or effect the other way, or a change in a side signal; inactive = flat fitted curve, though single readings scatter; the % refers to the signal ratio.
Respond only with the outcome that fits, drawn from active, inactive

Recorded call for "N[C@@H](Cc1c[nH]c2ccc(O)cc12)C(=O)O" ?
inactive

Recorded call for "NCCS(=O)(=O)O" ?
inactive

Recorded call for "NS(=O)(=O)c1cc2c(cc1Cl)NCNS2(=O)=O" ?
inactive

Recorded call for CC(C)NCC(O)c1ccc(O)c(O)c1 (centres undefined) ?
inactive

Recorded call for "Cn1c(=O)c2c(ncn2C)n(C)c1=O" ?
inactive

Recorded call for "CN(Cc1cnc2nc(N)nc(N)c2n1)c1ccc(C(=O)N[C@@H](CCC(=O)O)C(=O)O)cc1" ?
active

Recorded call for "Cc1cn([C@H]2C[C@H](N=[N+]=[N-])[C@@H](CO)O2)c(=O)[nH]c1=O" ?
inactive

Recorded call for "O=C(CCCN1CCC(O)(c2ccc(Cl)cc2)CC1)c1ccc(F)cc1" ?
inactive

Recorded call for CC(C)(Oc1ccc(C2CC2(Cl)Cl)cc1)C(=O)O (centres undefined) ?
inactive

Recorded call for "Cc1cn([C@H]2C=C[C@@H](CO)O2)c(=O)[nH]c1=O" ?
inactive

Recorded call for "O=C(c1ccc(OCCN2CCCCC2)cc1)c1c(-c2ccc(O)cc2)sc2cc(O)ccc12" ?
active

Recorded call for "C[C@](N)(Cc1ccc(O)c(O)c1)C(=O)O" ?
inactive

Recorded call for "CCC1(c2ccccc2)C(=O)NCNC1=O" ?
inactive

Recorded call for "Nc1ccn([C@H]2CC[C@@H](CO)O2)c(=O)n1" ?
inactive
